# target.desc: recombinant cynomolgus IL-1B (cynomolgus, UniProt P79182 117-268, limits assumed)
# Sequence (P79182 117-268 limits assumed): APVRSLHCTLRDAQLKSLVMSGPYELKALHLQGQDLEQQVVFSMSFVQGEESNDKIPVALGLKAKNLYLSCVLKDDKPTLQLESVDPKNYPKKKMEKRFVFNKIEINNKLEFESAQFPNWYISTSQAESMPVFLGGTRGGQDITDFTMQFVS
# assay.notes: cell-based or functional assay
Give measured IC90, rec. cyno IL-1 B, HEK blue for each item. Keep answers brief.
The response must be a number in nM with no trailing unit.

Lookup result for Antibody B1 (antibody, V domains shown) VH: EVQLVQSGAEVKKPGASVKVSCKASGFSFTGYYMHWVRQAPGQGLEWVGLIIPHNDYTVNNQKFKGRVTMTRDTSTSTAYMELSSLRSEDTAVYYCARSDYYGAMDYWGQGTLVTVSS VL: EIVMTQSPATLSVSPGERATLSCRASQNIGTSIHWYQQKPGQAPRLLIKYASNSIYGIPARFSGSGSGTEFTLTISSLQSEDIAVYYCQQGASWPPFTFGQGTKLEIK ; measured IC90, rec. cyno IL-1 B, HEK blue: 0.127

// sample Antibody A4 (antibody, V domains shown) VH: QVQLVQSGAEVKKPGASVKVSCKATGYTFTDYWIAWVRQAPGQGLEWMGSIFPGGDYTNYNEKFKGRVTMTRDTSTSTSYMELSSLRSEDTAVYYCARPYYSNYGHFDYWGQGTLVTVSS VL: EIVLTQSPATLSLSPGERATLSCRASESVDNSGIGFMNWYQQKPGQAPRLLIYAASNQGSGIPARFSGSGSGTDFTLTISRLEPEDFAVYYCQQNKELPWTFGQGTKLEIK , its IC90, rec. cyno IL-1 B, HEK blue was 0.205

Memo: Antibody B3 (antibody, V domains shown) VH: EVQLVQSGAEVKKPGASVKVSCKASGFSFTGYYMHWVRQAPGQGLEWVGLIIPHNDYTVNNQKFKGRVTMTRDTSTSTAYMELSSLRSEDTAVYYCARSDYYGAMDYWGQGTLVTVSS VL: EIVMTQSPATLSVSPGERATLSCRASQNIGTSIHWYQQKPGQAPRLLIKYASDSVYGIPARFSGSGSGTEFTLTISSLQSEDIAVYYCQQGASWPPFTFGQGTKLEIK , reported IC90, rec. cyno IL-1 B, HEK blue: 0.154

Consider Antibody A3 (antibody, V domains shown) VH: QVQLVQSGAEVKKPGASVKVSCKATGYTFTDYWIAWVRQAPGQGLEWMGSIFPGGDYTNYNEKFKGRVTMTRDTSTSTSYMELSSLRSEDTAIYYCARPYYSNYGHFDYWGQGTLVTVSS VL: EIILTQFPATLSLSPGERATISCRASESVDNSGIGFMNWYQQKPGQAPRLLIYAASNQGSGIPARFSGSGSGTDFTLTISRLEPEDFAVYYCQQNKELPWTFGQGTKLEIK . Its measured IC90, rec. cyno IL-1 B, HEK blue is 0.236

IC90, rec. cyno IL-1 B, HEK blue in this record for Antibody A1 (antibody, V domains shown) VH: QVQLVQSGAEVKKPGASVKVSCKATGYTFTNYWIAWVKQAPGQGLEWMGSIFPGGDYTNYNEKFKGKVTMTRDTSTSTSYMELSSLRSEDTAVYYCARPYYSNYGHFDYWGQGTLVTVSS VL: EIVLTQSPATLSLSPGERATLSCRASESVDNSGIGFMNWYQQKPGQAPKLLIYAASNQGSGIPARFSGSGSGTDFTLTISRLEPEDFAMYYCQQNKELPWTFGGGTKLEIK : 0.167

For this binder ( Antibody B4 (antibody, V domains shown) VH: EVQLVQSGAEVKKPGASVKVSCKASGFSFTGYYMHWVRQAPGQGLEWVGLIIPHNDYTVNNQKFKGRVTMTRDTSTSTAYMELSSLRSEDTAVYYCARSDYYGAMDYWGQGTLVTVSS VL: EIVMTQSPATLSVSPGERATLSCRASQNIGTSIHWYQQKPGQAPRLLIKYASDSKDGIPARFSGSGSGTEFTLTISSLQSEDIAVYYCQQGASWPPFTFGQGTKLEIK ), measured IC90, rec. cyno IL-1 B, HEK blue is 0.101
